target: UniProtKB P28335; assay: Intracellular calcium (Cai++) release assay, Calcium 4 dye, 5-HT2CR-CHO cells; settings: EC50 values for agonist-stimulated Cai++ release, 5-HT2CR-CHO cells, Serum-starved overnight preincubation
PROPERTY_LABEL: EC50

// query Indicate its recorded EC50; the compound in question is COc1cc(CC(C)N)c(OC)cc1I (stereo not shown) [DOI]
// result 5.4 nM

###

Target: unedited h5-HT2CR (Homo sapiens)
Sequence (P28335 33-458): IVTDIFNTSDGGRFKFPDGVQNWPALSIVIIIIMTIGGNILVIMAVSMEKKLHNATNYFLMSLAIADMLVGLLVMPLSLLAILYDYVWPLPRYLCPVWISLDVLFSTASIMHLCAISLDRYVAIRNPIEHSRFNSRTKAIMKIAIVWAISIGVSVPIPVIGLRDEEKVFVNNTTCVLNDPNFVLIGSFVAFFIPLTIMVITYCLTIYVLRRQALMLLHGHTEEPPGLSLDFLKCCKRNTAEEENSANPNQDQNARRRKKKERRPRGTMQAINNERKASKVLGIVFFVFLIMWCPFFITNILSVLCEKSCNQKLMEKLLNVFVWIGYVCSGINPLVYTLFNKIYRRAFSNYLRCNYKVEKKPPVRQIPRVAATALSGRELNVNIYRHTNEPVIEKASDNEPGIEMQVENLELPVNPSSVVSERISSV
Assay: Intracellular calcium (Cai++) release assay, Calcium 4 dye, 5-HT2CR-CHO cells
PROPERTY_LABEL: EC50 (nM)
Answers are plain numbers, in nM.

// query Give reported EC50 value for Cc1cc2c(cc1Cl)N(C(=O)Nc1ccc(Oc3cccnc3C)nc1)CC2 [SB242084]
// result 2.3
